From: ChEMBL document CHEMBL6109106

Exercise: for every item that follows, state its recorded viability at 24 h, 20 µM.
assay: Cytotoxicity against mouse RAW264.7 cells assessed as survival rate at 20 uM incubated for 24 hrs by MTT assay (reference value: 100 %); type: toxicity, cell-based; details: RAW264.7 cells, read-out: Survival
Answers are plain numbers, in %.

// below: answered compounds
• CCOC(=O)CC1c2c(ccc(OC)c2OC)-c2ccc3cc4c(cc3c2N1C)OCO4 (centres undefined) = 94.4
• COC(=O)C(C)C1c2c(ccc(OC)c2OC)-c2ccc3cc4c(cc3c2N1C)OCO4 (centres undefined) = 101
• CCCCNC(=O)CC1c2c(ccc3c2OCO3)-c2ccc3cc4c(cc3c2N1C)OCO4 (centres undefined) = 101

Could I get viability at 24 h, 20 µM for every one of these entries?
1. COC(=O)CCC1c2c(ccc(OC)c2OC)-c2ccc3cc4c(cc3c2N1C)OCO4 (centres undefined)
2. C=C(CC1c2c(ccc(OC)c2OC)-c2ccc3cc4c(cc3c2N1C)OCO4)C(=O)OC (centres undefined)

A)
1. 97.7
2. 130

List viability at 24 h, 20 µM for every entry below, keeping the order given.
1. CCCOC(=O)C(C)C1c2c(ccc(OC)c2OC)-c2ccc3cc4c(cc3c2N1C)OCO4 (centres undefined)
2. CCC(C)C1c2c(ccc(OC)c2OC)-c2ccc3cc4c(cc3c2N1C)OCO4 (centres undefined)
3. CN1c2c(ccc3cc4c(cc23)OCO4)-c2ccc3c(c2C1CC(=O)Nc1ccccc1)OCO3 (centres undefined)
4. CN1c2c(ccc3cc4c(cc23)OCO4)-c2ccc3c(c2C1CC(=O)[O-])OCO3.[Na+] (centres undefined)

A)
1. 122
2. 91.3
3. 125
4. 91.8

###

test: Cytotoxicity against mouse RAW264.7 cells assessed as survival rate at 20 uM incubated for 24 hrs by MTT assay (reference value: 100 %); type: toxicity, cell-based; conditions: RAW264.7 cells, read-out: Survival
Exercise: state measured viability at 24 h, 20 µM for each of the molecules provided.
Answers are plain numbers, in %.

* COc1ccc2c(c1OC)CN(C)c1c-2ccc2cc3c(cc12)OCO3 [DIHYDROCHELERYTHRINE] | 94.3
* CN1c2c(ccc3cc4c(cc23)OCO4)-c2ccc3c(c2C1CCO)OCO3 (stereo not given) | 160
* COc1ccc2c(c1OC)C(CCO)N(C)c1c-2ccc2cc3c(cc12)OCO3 (stereo not given) | 103
* COc1ccc2c(c1OC)C(CC(=O)[O-])N(C)c1c-2ccc2cc3c(cc12)OCO3.[Na+] (stereo not given) | 98.8

Q) Look up viability at 24 h, 20 µM: CCOC(=O)CC1c2c(ccc3c2OCO3)-c2ccc3cc4c(cc3c2N1C)OCO4 (stereo not given)
A) 109
